- System: ACHN renal
- EXPERIMENT_NOTES: NCI tumour cell line growth inhibition, 48 h
MEASURE: TGI

# annotated cases, reported TGI shown
CCOC(=O)C1SC(=Nc2ccc(C)c(C)c2)N=C1C (stereo unspecified) : > 100 µM
NC(=O)c1cc(Cl)ccc1NC(=O)/C=C/c1ccccc1 : > 100 µM
CN1CCN(CCCNc2nc3ccc(Oc4ccc(NC(=O)Nc5cc(C(F)(F)F)ccc5F)cc4)cc3[nH]2)CC1 : > 25 µM
O=C1CC(c2cccc([N+](=O)[O-])c2)C2(C(=O)NC(=O)NC2=O)C(c2cccc([N+](=O)[O-])c2)C1 (stereo unspecified) : > 100 µM
O=c1cc(NCC(O)CN2CCCC2)n(Cc2ccccc2)c(=O)n1Cc1ccccc1 (stereo unspecified) : > 100 µM

--- query ---
Given the compound `COc1ccc(CN2CC(C)(C)C2=O)c(OC)c1` , what is its reported TGI?
> 100 µM
